Assay: Caco-2 permeability assay
Format: in vitro ADME
Settings: human, Caco-2, pH 7.4; N = 2; 10 μM, 90 min

compound	readingUnit	Papp B→A at 90 min, 10 μM
CC(C)NCC(O)COc1cccc2ccccc12 (stereo not shown) [Propranolol, reference compound]	×10⁻⁶ cm/s	26

* * *

Tested on: plasma protein
Experiment: in vitro
Assay type: in vitro ADME
Design: dose or concentration left out as unconfirmed
Settings: mouse, pH 7.4
Recorded recovery at 5 h, one value per entry.

compound	recovery at 5 h [%]
CCOc1ccc(NC(C)=O)cc1 [Phenacetine]	73.3
C=C[C@H]1C[N@@]2CC[C@H]1C[C@@H]2[C@@H](O)c1ccnc2ccc(OC)cc12 [Quinidine]	102
CC(=O)CC(c1ccccc1)c1c(O)c2ccccc2oc1=O (stereo not drawn) [Warfarin]	103

* * *

Test: Caco-2 permeability assay
Format: in vitro ADME
Conditions: human, Caco-2, pH 7.4; Papp[B to A]/Papp[A to B]
assayEndpoint: efflux ratio at 90 min, 10 μM

molecule	assayEndpoint	measuredValue
CC(C)NCC(O)COc1cccc2ccccc12 (stereo not shown) [Propranolol, reference compound]	efflux ratio at 90 min, 10 μM	0.7

* * *

Experiment: in vitro
Assay type: in vitro ADME
Set-up: dose or concentration left out as unconfirmed
Conditions: mouse, plasma
remaining at 5 h overview

molecule	remaining at 5 h / %
C=C[C@H]1C[N@@]2CC[C@H]1C[C@@H]2[C@@H](O)c1ccnc2ccc(OC)cc12	107
CCOc1ccc(NC(C)=O)cc1	73.8
CC(=O)CC(c1ccccc1)c1c(O)c2ccccc2oc1=O (stereo not drawn)	101

* * *

Assay: in vitro
Assay type: in vitro ADME
Design: dose or concentration left out as unconfirmed
Details: mouse, plasma, pH 7.4
# fraction unbound at 5 h per entry

compound	fraction unbound at 5 h
C=C[C@H]1C[N@@]2CC[C@H]1C[C@@H]2[C@@H](O)c1ccnc2ccc(OC)cc12	0.243
CCOc1ccc(NC(C)=O)cc1	0.635
CC(=O)CC(c1ccccc1)c1c(O)c2ccccc2oc1=O (stereo not drawn)	0.086
